Entries below carry reported Ki on UniProt:Q00987.
Sequence (Q00987 whole entry): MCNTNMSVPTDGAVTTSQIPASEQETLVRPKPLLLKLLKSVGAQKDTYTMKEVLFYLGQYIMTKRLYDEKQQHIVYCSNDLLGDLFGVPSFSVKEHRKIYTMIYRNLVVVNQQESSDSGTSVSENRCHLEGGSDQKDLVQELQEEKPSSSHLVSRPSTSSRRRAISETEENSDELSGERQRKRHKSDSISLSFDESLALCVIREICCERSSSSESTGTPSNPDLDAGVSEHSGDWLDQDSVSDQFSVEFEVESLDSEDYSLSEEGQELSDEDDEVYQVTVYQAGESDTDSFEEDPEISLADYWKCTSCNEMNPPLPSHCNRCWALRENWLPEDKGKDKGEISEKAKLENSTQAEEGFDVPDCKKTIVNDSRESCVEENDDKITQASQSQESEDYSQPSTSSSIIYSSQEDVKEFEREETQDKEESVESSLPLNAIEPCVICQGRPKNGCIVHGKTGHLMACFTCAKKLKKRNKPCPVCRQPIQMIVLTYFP
measuredAttribute: Ki (µM)

{"molecularString": "Cc1ccc2c(c1)c(C[C@H](NC(=O)c1ccccc1Oc1ccccc1)C(=O)O)cn2Cc1ccc(OCc2ccccc2)cc1", "valueReported": 0.6}
{"molecularString": "Cc1ccc2[nH]cc(C[C@H](NC(=O)c3ccccc3Oc3ccccc3)C(=O)O)c2c1", "valueReported": 10}
{"molecularString": "N#Cc1ccc2[nH]cc(C[C@H](NC(=O)c3ccccc3Oc3ccccc3)C(=O)O)c2c1", "valueReported": 10}
{"molecularString": "O=C(N[C@@H](Cc1c[nH]c2cc(Br)ccc12)C(=O)O)c1ccccc1Oc1ccccc1", "valueReported": 3}
